- System Tested: Sigma non-opioid intracellular receptor 1 (Cavia porcellus) (UniProt Q60492)
- Sequence (Q60492 whole entry, looked up): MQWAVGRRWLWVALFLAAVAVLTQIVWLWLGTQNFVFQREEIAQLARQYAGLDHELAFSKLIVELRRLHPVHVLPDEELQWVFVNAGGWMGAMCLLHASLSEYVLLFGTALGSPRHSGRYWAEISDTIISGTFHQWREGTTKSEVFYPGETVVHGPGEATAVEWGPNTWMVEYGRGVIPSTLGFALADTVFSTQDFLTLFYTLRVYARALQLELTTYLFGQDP
- Procedure Details: In vitro binding affinity at opioid sigma-1 receptor in guinea pig brain membranes by (+)-[3H]pentazocine displacement.
Reported Endpoint: Ki (nM)
Entry rule: numbers only, all in nM.

Item COc1cccc2c1CCCC2CCCCCCN1CCN(C2CCCCC2)CC1 (stereo unspecified) was tested on Sigma non-opioid intracellular receptor 1 (Cavia porcellus) (UniProt Q60492); the reported Ki is 3.07

Item c1ccc2c(CCCCCN3CCN(C4CCCCC4)CC3)cccc2c1 was tested on Sigma non-opioid intracellular receptor 1 (Cavia porcellus) (UniProt Q60492); the reported Ki is 2.4

Item c1ccc2c(CCCN3CCN(C4CCCCC4)CC3)cccc2c1 was tested on Sigma non-opioid intracellular receptor 1 (Cavia porcellus) (UniProt Q60492); the reported Ki is 2.16

Item COc1ccc2c(c1)CCCC2CCCN1CCN(C2CCCCC2)CC1 (stereo unspecified) was tested on Sigma non-opioid intracellular receptor 1 (Cavia porcellus) (UniProt Q60492); the reported Ki is 0.36

Item COc1ccc2c(c1)C(CCCN1CCN(C3CCCCC3)CC1)CCC2 (stereo unspecified) was tested on Sigma non-opioid intracellular receptor 1 (Cavia porcellus) (UniProt Q60492); the reported Ki is 9.04

Item COc1cccc2c1CCCC2CCN1CCN(C2CCCCC2)CC1 (stereo unspecified) was tested on Sigma non-opioid intracellular receptor 1 (Cavia porcellus) (UniProt Q60492); the reported Ki is 1.57

Item COc1cccc2c1CCCC2CCCCCN1CCN(C2CCCCC2)CC1 (stereo unspecified) was tested on Sigma non-opioid intracellular receptor 1 (Cavia porcellus) (UniProt Q60492); the reported Ki is 1.52

Item COc1cccc2c1CCCC2CN1CCN(C2CCCCC2)CC1 (stereo unspecified) was tested on Sigma non-opioid intracellular receptor 1 (Cavia porcellus) (UniProt Q60492); the reported Ki is 0.31

Item c1ccc(CCN2CCCCC2)cc1 [N-phenethylpiperidine] was tested on Sigma non-opioid intracellular receptor 1 (Cavia porcellus) (UniProt Q60492); the reported Ki is 309

Item c1ccc2c(CCCCN3CCN(C4CCCCC4)CC3)cccc2c1 was tested on Sigma non-opioid intracellular receptor 1 (Cavia porcellus) (UniProt Q60492); the reported Ki is 0.22

Item Oc1ccc2c(c1)CCCC2CCCN1CCN(C2CCCCC2)CC1 (stereo unspecified) was tested on Sigma non-opioid intracellular receptor 1 (Cavia porcellus) (UniProt Q60492); the reported Ki is 0.69

====

- System Tested: Sigma non-opioid intracellular receptor 1 (Cavia porcellus)
- Procedure Details: In vitro binding affinity at opioid sigma-1 receptor in guinea pig brain membranes by (+)-[3H]pentazocine displacement.
Reported Endpoint: pKi
Remember the convention: pKi equals -log10 of concentration in molar.

Item c1ccc2c(c1)CCCC2CCCN1CCN(C2CCCCC2)CC1 (stereo not drawn) was tested on Sigma non-opioid intracellular receptor 1 (Cavia porcellus); the reported pKi is 9.21

Item COc1cccc2c1CCCC2N1CCN(C2CCCCC2)CC1 (stereo not drawn) was tested on Sigma non-opioid intracellular receptor 1 (Cavia porcellus); the reported pKi is 9.40

Item c1ccc2c(c1)CCCC2CCCCCN1CCN(C2CCCCC2)CC1 (stereo not drawn) was tested on Sigma non-opioid intracellular receptor 1 (Cavia porcellus); the reported pKi is 8.84

Values from BindingDB's records for doi:10.1021/jm031026e
